The reported measurements were obtained from patent US20200385371A1.

Target: WDR5 (Homo sapiens)
Assay: Surface Plasmon Resonance (SPR) assay
Assay type: binding
Parameters: Full length WDR5 with an N-terminal His tag and C-terminal AviTag; His tag (N); made in house; host or cells: E. coli
Conditions: read-out: SPR Kd
OBSERVATION TYPE: Kd (nM)

Here are 4 compounds together with their reported answers.
1) C[C@@H]1CN(c2nccc(-c3c(F)cc(N4CCN(C)[C@@H](C)C4)c(NC(=O)c4ccc(F)cc4C(F)F)c3F)n2)C[C@H](C)O1 ... 5.07
2) C[C@@H]1CN(c2ccc(-c3c(F)cc(N4C[C@@H](C)N(C)[C@@H](C)C4)c(NC(=O)c4c[nH]c(=O)cc4C(F)F)c3F)cn2)CCO1 ... 0.96
3) C[C@H]1CN(c2cc(F)c(C3=CCN(c4ncc(C#N)s4)C3)c(F)c2NC(=O)c2c[nH]c(=O)cc2C(F)(F)F)CCN1C ... 0.51
4) C[C@H]1CN(c2cc(F)c(C3=CCN(c4ncc(F)cn4)CC3)c(F)c2NC(=O)c2c[nH]c(=O)cc2C(F)(F)F)CCN1C ... 1.22

a: C[C@@H]1CN(c2cc(F)c(C3=CCN(C(=O)OC4CC(F)(F)C4)CC3)c(F)c2NC(=O)c2c[nH]c(=O)cc2C(F)(F)F)C[C@H](C)N1C
b: C[C@@H]1CN(c2nccc(-c3c(F)cc(N4CCN(C)[C@@H](C)C4)c(NC(=O)c4cn(C)c(=O)cc4C(F)F)c3F)n2)C[C@H](C)O1
Q: I'd appreciate it if you could identify which of a and b has the greater Kd. # reply format: chosen label
Result: b

* * *

System: MV4-11 cells
Experiment: Cell proliferation assay (ATPlite)
Assay type: cell-based
Conditions: Homo sapiens, 120 h; MV4-11 cells, five days; read-out: GI MV411 EC50
OBSERVATION TYPE: EC50 (nM)

Here are 5 molecules together with their reported answers.
1. C[C@H]1CN(c2ncc(-c3c(F)cc(N4CCN(C)[C@@H](C)C4)c(NC(=O)c4c[nH]c(=O)cc4C(F)(F)F)c3F)cn2)CCO1 ... 11.5
2. C[C@@H]1CN(c2cc(F)c(-c3ccnc(N4CCOCC4)c3)c(F)c2NC(=O)c2c[nH]c(=O)cc2C(F)(F)F)C[C@H](C)N1C ... 417
3. CC(C)[C@H]1CN(c2ncc(-c3c(F)cc(N4CCN(C)[C@@H](C)C4)c(NC(=O)c4c[nH]c(=O)cc4C(F)(F)F)c3F)cn2)CCO1 ... 14.3
4. C[C@@H]1CN(c2ncc(-c3c(F)cc(N4CCN(C)[C@@H](C)C4)c(NC(=O)c4cn(C)c(=O)cc4C(F)(F)F)c3F)cn2)C[C@@H](C)O1 ... 169
5. C[C@H]1CN(c2cc(F)c(C3=CCN(C(=O)OC4CC(F)(F)C4)CC3)c(F)c2NC(=O)c2c[nH]c(=O)cc2C(F)F)CCN1C ... 281

1: C[C@@H]1CN(c2cc(F)c(C3=CCCN(C(=O)OC4CC(F)(F)C4)C3)c(F)c2NC(=O)c2c[nH]c(=O)cc2C(F)(F)F)C[C@H](C)N1C
2: C[C@@H]1CN(c2cc(F)c(-c3cc(C(N)=O)c(F)cc3F)c(F)c2NC(=O)c2c[nH]c(=O)cc2C(F)(F)F)C[C@H](C)N1C
3: C[C@@H]1CN(c2ncc(-c3c(F)cc(N4C[C@@H](C)N(C)[C@@H](C)C4)c(NC(=O)c4c[nH]c(=O)cc4C(F)(F)F)c3F)cn2)CCO1
4: Cc1nc(C(=O)N2CC=C(c3c(F)cc(N4CCN(C)[C@@H](C)C4)c(NC(=O)c4c[nH]c(=O)cc4C(F)F)c3F)CC2)cs1
5: C[C@@H]1CN(c2nccc(-c3c(F)cc(N4CCN(C)[C@@H](C)C4)c(NC(=O)c4ccc(F)cc4C(F)F)c3F)n2)C[C@H](C)O1
Q: Descending sort on EC50 required. Could you list the labels in the order requested?
Result: 2, 4, 5, 1, 3
(2: 18500 nM, 4: 440 nM, 5: 286 nM, 1: 153 nM, 3: 5.85 nM)
